// data source = patent US20260272979A1

- tested on: T1, PD-L1 fuse-expressed with an Fc derived from human IgG1 (human, UniProt Q9NZQ7 19-239)
- T1 construct: Bought reagent; also called PD-L1-Fc; hPD-L1-Fc; not shown: Fc of human IgG1
- T1 sequence (Q9NZQ7 19-239 limits assumed): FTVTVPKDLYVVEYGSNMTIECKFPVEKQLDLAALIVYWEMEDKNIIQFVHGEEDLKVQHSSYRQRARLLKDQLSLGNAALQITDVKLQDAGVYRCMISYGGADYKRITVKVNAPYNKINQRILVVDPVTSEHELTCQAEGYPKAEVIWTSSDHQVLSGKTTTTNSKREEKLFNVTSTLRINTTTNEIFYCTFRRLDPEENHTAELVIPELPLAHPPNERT
- experiment notes: SPR Biacore T200; PD1-RFc mobile phase
readout type: koff (s⁻¹)
Just the number in s⁻¹, nothing appended.

The following binders have reported results that may help.
binder	obs value
Seq No. 6-RFc (PD-1 variant PD1_56#-16 fused to rabbit IgG Fc) (Fc fusion, Signal peptide 1-20 left out; several higher bands in non-reducing SDS-PAGE; also called variant 5; PD1 variant 5 (56#-16); not shown: rabbit IgG Fc (RFc) of vector pcDNA3.4-RFc) PGWFLDSPDRPWNPPTFSPALLVVTEGDNATFTCSFSNTSESFVLNWYRMSPSNQTDKLAAFPEDFFTVSQDCRFRVTQLPNGRDFHMSVVRARRNDSGTYLCGAISLSTPVWIKESLRAELRVTERRAEVPTAH	0.00153
Seq No. 4-RFc (PD-1 variant PD1_56#-3 fused to rabbit IgG Fc) (Fc fusion, Signal peptide 1-20 left out; several higher bands in non-reducing SDS-PAGE; also called variant 3; Mut3/56#-3; not shown: rabbit IgG Fc (RFc) of vector pcDNA3.4-RFc) PGWFLDSPDRPWNPPTFSPALLVVTEGDNATFTCSFSNTSESFVLNWYRMSPSNQTDKLAAFPWMFCFPGQDCRFRVTQLPNGRDFHMSVVRARRNDSGTYLCGAISLSTPVWIKESLRAELRVTERRAEVPTAH	0.00266
Seq No. 2-RFc (PD-1 variant PD1_56# fused to rabbit IgG Fc) (Fc fusion, Signal peptide 1-20 left out; also called variant 1; Mut1/56#; not shown: rabbit IgG Fc (RFc) of vector pcDNA3.4-RFc) PGWFLDSPDRPWNPPTFSPALLVVTEGDNATFTCSFSNTSESFVLNWYRMSPSNQTDKLAAFPEDRSQPGQDCRFRVTQLPNGRDFHMSVVRARRNDSGTYLCGAISLSTPVWIKESLRAELRVTERRAEVPTAH	0.00129
Seq No. 5-RFc (PD-1 variant PD1_56#-15 fused to rabbit IgG Fc) (Fc fusion, Signal peptide 1-20 left out; also called variant 4; Mut4/56#-15; not shown: rabbit IgG Fc (RFc) of vector pcDNA3.4-RFc) PGWFLDSPDRPWNPPTFSPALLVVTEGDNATFTCSFSNTSESFVLNWYRMSPSNQTDKLAAFPEDFRNCTQDCRFRVTQLPNGRDFHMSVVRARRNDSGTYLCGAISLSTPVWIKESLRAELRVTERRAEVPTAH	0.00343

As a next step, examine the binder that follows.
Exercise: If you can, please state the reported koff value of Seq No. 7-RFc (PD-1 variant PD1_56#-108 fused to rabbit IgG Fc) (Fc fusion, Signal peptide 1-20 left out; also called variant 6; not shown: rabbit IgG Fc (RFc) of vector pcDNA3.4-RFc) PGWFLDSPDRPWNPPTFSPALLVVTEGDNATFTCSFSNTSESFVLNWYRMSPSNQTDKLAAFPEDRINRSQDCRFRVTQLPNGRDFHMSVVRARRNDSGTYLCGAISLSTPVWIKESLRAELRVTERRAEVPTAH .
Key: 0.000771
